Where do these numbers come from? They come from BindingDB's records for patent US20240216357.

target_or_system: Lysine-specific histone demethylase 1A (Homo sapiens)
readout: IC50 (nM)
Give bare numbers, in nM.

Field: example entries. Status: answers known.
COc1ccc(Nc2c(O)cc(N3CCC(N)CC3)nc2-c2ccc(C#N)c(F)c2)cc1F: 119
COc1ccc(-c2c(-c3ccc(C#N)c(F)c3)nc(N3CCC(N)CC3)c3c2OCC(=O)N3)cc1O: 0.272
Cc1ccc(-c2c(-c3ccc(C#N)cc3)nc3c(N4CCC[C@@H](N)C4)nccn23)cc1: 28.5

Give me IC50 for each of these compounds, listed below.
1. COc1cc(N2CCC(N)CC2)nc(-c2ccc(C#N)c(F)c2)c1-c1ccc(Cl)c(O)c1
2. Cc1noc2cc(-c3cc(C#N)c(N4CCC(N)CC4)nc3-c3ccc(C#N)c(F)c3)c(F)cc12
3. COc1ccc(-c2nc(N3CCC(N)CC3)cc(C#N)c2-c2ccc(C#N)c(F)c2)cc1O

1. 0.7
2. 633
3. 23.8
